# Tested on: HOP-92 NSCLC
# measurement_protocol: NCI tumour cell line growth inhibition, 48 h
Some compounds, each annotated with its measured TGI.

compound	TGI
C=C(C)[C@@]1(O)CCC[C@H]1NC(=O)OC(C)(C)C	> 100 µM
O=C(NNC(=O)c1ccncc1)c1ccncc1	> 100 µM
COC(=O)N/N=C/c1oc(-c2ccccc2)c(-c2ccccc2)c1[N+](=O)[O-]	> 100 µM

QUERY: Enter TGI (test system HOP-92 NSCLC) for CCOC(=O)C1=C(C)NC2SC(=O)/C(=C\c3ccccc3)N2C1c1ccccc1 (stereo not given)
RESULT: > 100 µM

QUERY: Enter TGI (test system HOP-92 NSCLC) for "COC(=O)Nc1nc2cc3c(cc2s1)OCCO3"
RESULT: > 50 µM

QUERY: Enter TGI (test system HOP-92 NSCLC) for "Cc1c[nH]c(C(=O)O)c1-c1ccc2c(-c3ccccc3)nc3ccccc3n12"
RESULT: > 100 µM
